- Tested on: MDA-MB-231 breast
- METHOD NOTES: NCI-60 one-dose screen, 48 h (100 = growth as untreated, 0 = no growth, -100 = all killed)
- CONDITION SET: 10 µM unless noted
About 83,000 compounds went through this panel and 20% of them were active in at least one assay; those are over-represented in the sample as a whole. Activity calls are given as the source filed them. Rule for the calls: active = growth percent below 10; inactive = the rest.
Listed molecules paired with reported growth
MEASURE: growth

* CC[C@H](C)[C@H](NC(=O)[C@H]1CCCCN1C)C(=O)N(C)[C@H](C[C@@H](OC(C)=O)c1nc(C(=O)NC23CC(C(=O)OC)(C2)C3)cs1)C(C)C | 15% (inactive)
* N#CCCNc1ccccc1 | 111% (inactive)
* Cc1c2cc(Cl)c3ccccc3c2c[n+]2ccccc12 | 82.5% (inactive)
* COC(=O)[C@@H](C)C[C@H](Cc1ccccc1)NC(=O)c1nc([C@@H](C[C@H](C(C)C)N(C)C(=O)[C@@H](NC(=O)[C@H]2CCCN2C)C(C)C)OC(C)=O)sc1C | 14.1% (inactive)
* COC(=O)[C@@H](C)C[C@H](Cc1ccccc1)NC(=O)c1csc(CC[C@H](C(C)C)N(C)C(=O)[C@@H](NC(=O)[C@H]2CCCCN2C)C(C)C)n1 | 14.2% (inactive)
* Cc1cc(-c2nc3cc(F)ccc3[se]2)cc(F)c1N | 63.5% (inactive)
* CCOC(=O)[C@@H](C)C[C@H](Cc1ccccc1)NC(=O)c1csc([C@@H](C[C@H](C(C)C)N(C)C(=O)[C@@H](NC(=O)[C@H]2CCCCN2C)C(C)(C)CC)OC(C)=O)n1 | -1.28% (active)
* NC(N)=N/N=C\c1c[nH]c2ccc(Br)cc12 | 101% (inactive)
* COC(=O)[C@@]1(C)CC[C@]2(C)CC[C@]3(C)C4=CC=C5C(=CC(=O)C(O)=C5C)[C@]4(C)CC[C@@]3(C)[C@@H]2C1 | -93.4% (active)
* COc1ccc(/C=C\c2cc(OC)c(OC)c(OC)c2)cc1OCC(=O)Nc1nc2ccc(OC(F)(F)F)cc2s1 | 36.7% (inactive)
* COC(=O)[C@H](C[C@H](Cc1ccccc1)NC(=O)c1csc([C@@H](C[C@H](C(C)C)N(C)C(=O)[C@@H](NC(=O)[C@H]2CCCCN2C)C(C)C)OC(C)=O)n1)NC(=O)OCc1ccccc1 | 5.23% [8.5 µM] (active)
* COC[C@@H]1C[C@@]2(C)[C@@H](CC[C@@H]3[C@@H]2CC[C@@]2(C)[C@H]3CC[C@]2(C)O)CC1=O | 116% (inactive)
* COC(=O)[C@@H](C)C[C@H](Cc1ccccc1)NC(=O)c1csc([C@@H](C[C@H](C(C)C)N(C)C(=O)[C@@H](NC(=O)[C@H]2CCCCN2C)C(C(F)(F)F)C(F)(F)F)OC(C)=O)n1 | 6.65% (active)
* CCOP(=O)(Cc1ccc(C#N)cc1)OCC | 100% (inactive)
* N#CC1(C#N)C(c2ccc(N(CCCl)CCCl)cc2)OC23CCCCC2C1(C#N)C(=N)O3 (stereo unspecified) | 95.3% (inactive)
* CC(=O)O[C@H]1CC[C@@]2(C)C(=CC[C@H]3[C@@H]4C[C@@H](N5CC5)[C@H](C(C)=O)[C@@]4(C)CC[C@@H]32)C1 | 91.4% (inactive)
* O=C(Nc1ccncc1F)c1cn(CC2CC2)c2ccccc12 | 109% (inactive)
* Cc1cc(N(CCCl)CCCl)ccc1C=Nc1cccnc1 | 98.4% (inactive)
* COc1ccc(C/C(C)=C(\c2ccc(OCCN3CCOCC3)cc2)c2ccc(OC(=O)Cc3ccccc3)cc2)cc1 | -48.4% (active)
* COc1ccc(/C=C\c2cc(OC)c(OC)c(OC)c2)c(NS(=O)(=O)c2ccc(F)cc2)c1O | 8.05% (active)
* CC[C@H](C)[C@H](NC(=O)[C@H]1CCCCN1C)C(=O)N(C)[C@H](C[C@@H](O)c1nc(C(=O)N[C@@H](Cc2ccccc2)C[C@H](C)C(=O)O)cs1)C(C)C | 95.2% (inactive)
* O=C1OCC2=C1C(c1ccccc1)c1cc3c(cc1N2)OCO3 (stereo unspecified) | -1.65% (active)
* C=CCn1cc(C=C2C(=O)N(C)C(=O)N(C)C2=O)c2ccccc21 | 88.4% (inactive)
* CCCCCC1(CCBr)C(=O)NC(=O)NC1=O | 107% (inactive)
* Fc1ccc2c(c1)c(-c1nc(-c3c[nH]c4ncccc34)cs1)cn2CCCCN1CCCCC1 | -88.4% (active)
* O=C1C2CCC1C(N1CCCC1)CC2 (stereo unspecified) | 110% (inactive)
* COc1cc([N+](=O)[O-])c2nc(C)ccc2c1[N+](=O)[O-] | 94.4% (inactive)
* Nc1ccc(-c2nc3cc(F)ccc3[se]2)cc1F | 42.3% (inactive)
* O=C1Nc2ccccc2C2c3cccn3-c3ccccc3CN12 (stereo unspecified) | 39.2% (inactive)
* CC(C)CCC(=O)O[C@H]1CC[C@H]2[C@@H]3CCC4=CC(=O)CC[C@]4(C)[C@H]3CC[C@]12C | 98.2% (inactive)
* COc1ccc2c(c1)c(-c1nc(-c3c[nH]c4ncccc34)cs1)cn2CCCCN1CCCCC1 | -75.9% (active)
* N#CC1C(C#N)C2CCC1C1C2N1c1ccccc1 (stereo unspecified) | 110% (inactive)
* CC1=C([Te]c2ccc(O)cc2)C(=O)c2ccccc2C1=O | 3.12% (active)
* Cn1cc(C=O)c2nccnc21 | 111% (inactive)
* COC(=O)[C@@H](C)C[C@H](Cc1ccccc1)NC(=O)c1nc([C@@H](C[C@H](C(C)C)N(C)C(=O)[C@@H](NC(=O)[C@H]2C[C@H](O)CCN2C)C(C)C)OC(C)=O)sc1C(C)C | 3.71% (active)
* Fc1ccc(N2COOC3(OOC2)C2CC4CC(C2)CC3C4)cc1 | 95.5% (inactive)
